Assay: yeast display, Sf9 membrane polyspecificity reagent, FACS + sequencing; frameworks hold sequencing errors
endpoint_label: polyreactivity (PSR sort gate)

Some sequences with recorded polyreactivity (PSR sort gate):
QVQLQDSGGGLVQARGSLRPSCAASGTISDGVPMGWYRQAPGEVRELVATTVLGATTNYADSVKGRFTISRGNAKNTVYLQMNSLKPEETAVYYCAAPLRYDKGFSYWGQGTQVTVSS
low polyreactivity
QVQLVESGGGLVQAGGSLRLSCAASGRIVGINVMGWYRQAPGKERELVAAISYRTGSTYYADSVKGRFTISRDNAKNTVYLQMNSLKPEDTAVYYCDAQRRIRTAWYDYWGQGTQVTVSS
high polyreactivity
QVQLVESGGGLVQAGGSLRLSCAASGSIFGQNAMGWYRQAPGKERELVAAITTSRGSTYYADSVKGRFTISRDNPKNTVDFQMNSLNPEDTAVYYCAARYVTPGYIIYVYWGQGTQVTVSS
high polyreactivity
QVQLVESGGGLVQAGGSLLLSCAASGTTFDRNAMGGYRQAPGKEREIVDAIRFGGGSTNYADSVKGRFTISRDNAKNTVYLLMNSLKPEDTAVYYCNAERIWRYKYGYDYWGQGTQVTVSS
high polyreactivity
QVQLVESGGGLVQAGGSLRLSCAASGSTFSLYTMGWYRQAPGKERELVAAITWTGGSTYYADSVKGRFTISRDNAKNTVYLQMNSLKPEDTAVYYCAAVSRLTGSRESQLIRSRMYYWGQGTQVTVSS
high polyreactivity

Give polyreactivity (PSR sort gate) for all sequences that follow.
1. QVQLVESGGGLVQAGGSLRLSCAASGRIFDYYAMGWYRQAPGKERELVAAIDWRGDRTYYADSVKGRFTISRDNAKNTVYLQMNSLKPEDTAVYYCNVLDTRQVGGYRFDYWGQGTQVTVSS
2. QVQLQESSGGLVQAGGSLRMSCAASGTIFHFHIIGWYRQAPRKEREFVAASSYGTRTYYADSVKGRFTISRDNAKNTVYLQMNSQKPEDTAVYYCAVYDYLEVYCWYWGQGTQVTVRS
3. QVQLVESGGGLVQAGGSLRFSCAASGITFVYYARGWYRQAPGKERELVAAITRSGDSTYYADSVKGRFTISRDNAKNTVYLQMNSLKPEDTAVYYCAAESYYSTYQVEYYDWGQGTQVTVSS

output:
1: low polyreactivity; 2: low polyreactivity; 3: high polyreactivity

Give polyreactivity (PSR sort gate) for all sequences that follow.
1. QVQLVESGGGLVQARGSLRLSCAASGRTFGNYAMGWYRQSPGKERELVASINTGGSTSYADSVKGRFTISRDNAKNTVYFLMNSLKPEDTAVYYCARSFFWYRLHVYWGQGTQVTVSS
2. QVQLVESAGGLVQAGGSLRLSCAASGSIFGLYAMGWSRQAPGKDRELVAAITSAGSTYYADSVKGRFTISRDNAKNTVYLQMNTLKPEDTAVYYCAARGFYQFPSYYYWGKGTQVTVSS
3. QVQLVESGGGLVQAGGSLRLSCAASGATFGYYGMGWYRQAHGTERELVAAISTRGDSTYYADSVMGRFTISRDNAKNPVYLQMHSLKPEDPAGYYCAKSRQSSGRVRFDYWGQGTQVTVSS

output:
low polyreactivity
high polyreactivity
low polyreactivity

Where do these numbers come from? They come from the nanobody polyreactivity screen of Harvey et al. (2022).
